# Tested on: phospho-ERK in MIA PaCa2 or H358 cells
# protocol text: Phospho-ERK assay (AlphaLisa)
# Type: cell-based
# protocol conditions: 1.5 h, MIA PaCa2 or H358 cells, compound incubated 1.5 hours; read-out: IC50 (p-ERK)
pIC50: −log10 of the molar value.

compound	pIC50
COCCn1cnc2ccc(Sc3cnc(N4CCC5(CC4)Cc4ncsc4[C@H]5N)cn3)c(Cl)c2c1=O	> 7.35
CC(O)CCn1cnc2ccc(Sc3cnc(N4CCC5(CC4)Cc4ncccc4[C@H]5N)cn3)c(Cl)c2c1=O (stereo partly drawn)	> 7.35
Cn1c(N2CCOC(CN)C2)nc(N)c(Sc2cccc(Cl)c2Cl)c1=O (stereo not drawn)	< 5.82
C[C@@H]1OCC2(CCN(c3cnc(Sc4ccc5ncn(Cc6cccc(C#N)c6)c(=O)c5c4Cl)cn3)CC2)[C@@H]1N	> 7.35
N[C@@H]1c2cccnc2CC12CCN(c1cnc(Sc3ccc4ncn(CC5(F)COC5)c(=O)c4c3Cl)cn1)CC2	> 7.35
C[C@@H]1OCC2(CCN(c3cnc(Sc4ccc5ncn(CCC(N)=O)c(=O)c5c4Cl)cn3)CC2)[C@@H]1N	5.82 to 7.35
COCCn1cnc2ccc(Sc3cnc(N4CCC5(CC4)Cc4nc(Cl)sc4[C@H]5N)cn3)c(Cl)c2c1=O	> 7.35
COCCn1cnc2ccc(Sc3cnc(N4CCC5(CC4)Cc4ncsc4[C@H]5N)c(C(N)=O)n3)c(Cl)c2c1=O	> 7.35
C[C@@H]1OCC2(CCN(c3cnc(Sc4ccc5ncn(CC(=O)c6cccnc6)c(=O)c5c4Cl)cn3)CC2)[C@@H]1N	> 7.35
COCCn1cnc2ccc(Sc3cnc(N4CCC5(CC4)Cc4nc(Cl)sc4[C@@H]5N)cn3)c(Cl)c2c1=O	5.82 to 7.35
C[C@@H]1OCC2(CCN(c3cnc(Sc4ccc5ncn(Cc6cccnc6)c(=O)c5c4Cl)cn3)CC2)[C@@H]1N	> 7.35
COCCn1cnc2ccc(Sc3cnc(N4CCC5(CCC[C@H]5N)CC4)cn3)c(Cl)c2c1=O	5.82 to 7.35
C[C@@H]1OCC2(CCN(c3cnc(Sc4ccc5nn(Cc6ccccc6)cc5c4Cl)cn3)CC2)[C@@H]1N	< 5.82
C[C@@H]1OCC2(CCN(c3cnc(Sc4ccc5ncn(CC(C)(C)O)c(=O)c5c4Cl)cn3)CC2)[C@@H]1N	> 7.35
COCCn1cnc2ccc(Sc3cnc(N4CCC5(CC4)Cc4ncccc4[C@H]5N)c(CO)n3)c(Cl)c2c1=O	> 7.35

From: patent US12029739B2
